Measurement notes: activity coefficient (dimensionless); of the first substance listed, at infinite dilution; xn = mol fraction of the nth substance listed
Test parameters: 338.15 K; 101 kPa; Liquid; Chromatography; x1 = 0
Readout: activity coefficient
Give your answer as a number; write no unit.

The cases that follow already have their activity coefficient on record.
compound="CCc1ccccc1 [ethylbenzene] + COCC[N+]1(C)CCCCC1.O=S(=O)([N-]S(=O)(=O)C(F)(F)F)C(F)(F)F" observed=1.93
compound="CCCC=O [butanal] + COCC[N+]1(C)CCCCC1.O=S(=O)([N-]S(=O)(=O)C(F)(F)F)C(F)(F)F" observed=0.805
compound="CCC(C)CC [3-methylpentane] + COCC[N+]1(C)CCCCC1.O=S(=O)([N-]S(=O)(=O)C(F)(F)F)C(F)(F)F" observed=13.2

Let us move to another entry and its activity coefficient.
Quick one: activity coefficient of CC(C)CO [2-methyl-1-propanol] + COCC[N+]1(C)CCCCC1.O=S(=O)([N-]S(=O)(=O)C(F)(F)F)C(F)(F)F ?
2.12

----------
Below, each of the compounds is paired with its reported activity coefficient value.
Measurement notes: activity coefficient (dimensionless); of the first substance listed, at infinite dilution; xn = mol fraction of the nth substance listed
Test parameters: 338.15 K; 101 kPa; Liquid; Chromatography; x1 = 0
Give your answer as a number; write no unit.

The cases that follow already have their activity coefficient on record.
compound="CCCCCCCCC [nonane] + COCC[N+]1(C)CCCCC1.O=S(=O)([N-]S(=O)(=O)C(F)(F)F)C(F)(F)F" observed=42
compound="C1CCOC1 [tetrahydrofuran] + COCC[N+]1(C)CCCCC1.O=S(=O)([N-]S(=O)(=O)C(F)(F)F)C(F)(F)F" observed=0.787
compound="Cc1cccc(C)c1 [1,3-dimethylbenzene] + COCC[N+]1(C)CCCCC1.O=S(=O)([N-]S(=O)(=O)C(F)(F)F)C(F)(F)F" observed=1.82
compound="CCC(C)O (stereo not drawn) [butan-2-ol] + COCC[N+]1(C)CCCCC1.O=S(=O)([N-]S(=O)(=O)C(F)(F)F)C(F)(F)F" observed=1.89
compound="C=C(C)c1ccccc1 [(1-methylethenyl)benzene] + COCC[N+]1(C)CCCCC1.O=S(=O)([N-]S(=O)(=O)C(F)(F)F)C(F)(F)F" observed=1.66

Quick one: activity coefficient of C#CCCCCC [1-heptyne] + COCC[N+]1(C)CCCCC1.O=S(=O)([N-]S(=O)(=O)C(F)(F)F)C(F)(F)F ?
4.19

For CC(C)CC(C)(C)C [2,2,4-trimethylpentane] + COCC[N+]1(C)CCCCC1.O=S(=O)([N-]S(=O)(=O)C(F)(F)F)C(F)(F)F then?
20.9

For CCC(=O)OC [methyl propanoate] + COCC[N+]1(C)CCCCC1.O=S(=O)([N-]S(=O)(=O)C(F)(F)F)C(F)(F)F then?
0.92

For CCC[N+](=O)[O-] [1-nitropropane] + COCC[N+]1(C)CCCCC1.O=S(=O)([N-]S(=O)(=O)C(F)(F)F)C(F)(F)F then?
0.726

For C=CCCCCCC [oct-1-ene] + COCC[N+]1(C)CCCCC1.O=S(=O)([N-]S(=O)(=O)C(F)(F)F)C(F)(F)F then?
16.1

For CC1CCCCC1 [methylcyclohexane] + COCC[N+]1(C)CCCCC1.O=S(=O)([N-]S(=O)(=O)C(F)(F)F)C(F)(F)F then?
12

For CCCCC [pentane] + COCC[N+]1(C)CCCCC1.O=S(=O)([N-]S(=O)(=O)C(F)(F)F)C(F)(F)F then?
10.8

For CC(C)(C)O [2-methylpropan-2-ol] + COCC[N+]1(C)CCCCC1.O=S(=O)([N-]S(=O)(=O)C(F)(F)F)C(F)(F)F then?
1.61

----------
Measurement notes: activity coefficient (dimensionless); of the first substance listed, at infinite dilution; xn = mol fraction of the nth substance listed
Test parameters: 348.15 K; 101 kPa; Liquid; Chromatography; x1 = 0
Binary call on activity coefficient: true (1) from 1 upward, false (0) beneath that.

Use the examples below as a reference point.
molecule="CC(C)OC(C)C [diisopropyl ether] + COCC[N+]1(C)CCCCC1.O=S(=O)([N-]S(=O)(=O)C(F)(F)F)C(F)(F)F" group_label="true (1)"
molecule="C#CCCCCCC [1-octyne] + COCC[N+]1(C)CCCCC1.O=S(=O)([N-]S(=O)(=O)C(F)(F)F)C(F)(F)F" group_label="true (1)"
molecule="CCCCCCC [heptane] + COCC[N+]1(C)CCCCC1.O=S(=O)([N-]S(=O)(=O)C(F)(F)F)C(F)(F)F" group_label="true (1)"
molecule="c1ccncc1 [pyridine] + COCC[N+]1(C)CCCCC1.O=S(=O)([N-]S(=O)(=O)C(F)(F)F)C(F)(F)F" group_label="false (0)"
molecule="COC(C)(C)C [2-methoxy-2-methylpropane] + COCC[N+]1(C)CCCCC1.O=S(=O)([N-]S(=O)(=O)C(F)(F)F)C(F)(F)F" group_label="true (1)"

Has CO [methanol] + COCC[N+]1(C)CCCCC1.O=S(=O)([N-]S(=O)(=O)C(F)(F)F)C(F)(F)F a recorded activity coefficient greater than or equal to 1?
true (1)

For C1COCCO1 [1,4-dioxane] + COCC[N+]1(C)CCCCC1.O=S(=O)([N-]S(=O)(=O)C(F)(F)F)C(F)(F)F then?
false (0)

----------
Measurement notes: activity coefficient (dimensionless); of the first substance listed, at infinite dilution; xn = mol fraction of the nth substance listed
Test parameters: 368.15 K; 101 kPa; Liquid; Chromatography; x1 = 0
Below, each of the compounds is paired with its reported activity coefficient value.

The cases that follow already have their activity coefficient on record.
compound="C1CCCCCCC1 [cyclooctane] + COCC[N+]1(C)CCCCC1.O=S(=O)([N-]S(=O)(=O)C(F)(F)F)C(F)(F)F" observed=12.4
compound="C1COCCO1 [1,4-dioxane] + COCC[N+]1(C)CCCCC1.O=S(=O)([N-]S(=O)(=O)C(F)(F)F)C(F)(F)F" observed=0.705
compound="C1CCCC1 [cyclopentane] + COCC[N+]1(C)CCCCC1.O=S(=O)([N-]S(=O)(=O)C(F)(F)F)C(F)(F)F" observed=5.45
compound="CCc1ccccc1 [ethylbenzene] + COCC[N+]1(C)CCCCC1.O=S(=O)([N-]S(=O)(=O)C(F)(F)F)C(F)(F)F" observed=1.95
compound="CCC(=O)CC [pentan-3-one] + COCC[N+]1(C)CCCCC1.O=S(=O)([N-]S(=O)(=O)C(F)(F)F)C(F)(F)F" observed=0.869
compound="C1CCOC1 [tetrahydrofuran] + COCC[N+]1(C)CCCCC1.O=S(=O)([N-]S(=O)(=O)C(F)(F)F)C(F)(F)F" observed=0.821
compound="C=CCCCC [hex-1-ene] + COCC[N+]1(C)CCCCC1.O=S(=O)([N-]S(=O)(=O)C(F)(F)F)C(F)(F)F" observed=7.22
compound="CCCCO [butan-1-ol] + COCC[N+]1(C)CCCCC1.O=S(=O)([N-]S(=O)(=O)C(F)(F)F)C(F)(F)F" observed=1.71

Quick one: activity coefficient of CCCC(C)=O [pentan-2-one] + COCC[N+]1(C)CCCCC1.O=S(=O)([N-]S(=O)(=O)C(F)(F)F)C(F)(F)F ?
0.849

For C=C(C)c1ccccc1 [(1-methylethenyl)benzene] + COCC[N+]1(C)CCCCC1.O=S(=O)([N-]S(=O)(=O)C(F)(F)F)C(F)(F)F then?
1.78

----------
Measurement notes: activity coefficient (dimensionless); of the first substance listed, at infinite dilution; xn = mol fraction of the nth substance listed
Test parameters: 338.15 K; 101 kPa; Liquid; Chromatography; x1 = 0
Below, each of the compounds is paired with its reported activity coefficient value.
Give your answer as a number; write no unit.

compound="CCCCCC [hexane] + COCC[N+]1(C)CCCCC1.O=S(=O)([N-]S(=O)(=O)C(F)(F)F)C(F)(F)F" readout="activity coefficient" observed=15.1

Quick one: activity coefficient of CC(C)O [propan-2-ol] + COCC[N+]1(C)CCCCC1.O=S(=O)([N-]S(=O)(=O)C(F)(F)F)C(F)(F)F ?
1.61

For CCCCCCCCCC [decane] + COCC[N+]1(C)CCCCC1.O=S(=O)([N-]S(=O)(=O)C(F)(F)F)C(F)(F)F then?
59.5

For CCCO [propan-1-ol] + COCC[N+]1(C)CCCCC1.O=S(=O)([N-]S(=O)(=O)C(F)(F)F)C(F)(F)F then?
1.77

----------
Below, each of the compounds is paired with its reported activity coefficient value.
Measurement notes: activity coefficient (dimensionless); of the first substance listed, at infinite dilution; xn = mol fraction of the nth substance listed
Test parameters: 318.15 K; 101 kPa; Liquid; Chromatography; x1 = 0
Give your answer as a number; write no unit.

The cases that follow already have their activity coefficient on record.
compound="CCC(C)O (stereo not drawn) [butan-2-ol] + COCC[N+]1(C)CCCCC1.O=S(=O)([N-]S(=O)(=O)C(F)(F)F)C(F)(F)F" observed=2.26
compound="CCC[N+](=O)[O-] [1-nitropropane] + COCC[N+]1(C)CCCCC1.O=S(=O)([N-]S(=O)(=O)C(F)(F)F)C(F)(F)F" observed=0.724
compound="Cc1ccc(C)cc1 [1,4-dimethylbenzene] + COCC[N+]1(C)CCCCC1.O=S(=O)([N-]S(=O)(=O)C(F)(F)F)C(F)(F)F" observed=1.08
compound="CCOCC [diethyl ether] + COCC[N+]1(C)CCCCC1.O=S(=O)([N-]S(=O)(=O)C(F)(F)F)C(F)(F)F" observed=2.6
compound="C=CCCCCCC [oct-1-ene] + COCC[N+]1(C)CCCCC1.O=S(=O)([N-]S(=O)(=O)C(F)(F)F)C(F)(F)F" observed=18.1

Quick one: activity coefficient of CO [methanol] + COCC[N+]1(C)CCCCC1.O=S(=O)([N-]S(=O)(=O)C(F)(F)F)C(F)(F)F ?
1.37

For C1CCCC1 [cyclopentane] + COCC[N+]1(C)CCCCC1.O=S(=O)([N-]S(=O)(=O)C(F)(F)F)C(F)(F)F then?
6.73

For C=CCCC [1-pentene] + COCC[N+]1(C)CCCCC1.O=S(=O)([N-]S(=O)(=O)C(F)(F)F)C(F)(F)F then?
6.03

For C1CCCCCC1 [cycloheptane] + COCC[N+]1(C)CCCCC1.O=S(=O)([N-]S(=O)(=O)C(F)(F)F)C(F)(F)F then?
13.3

For c1ccccc1 [benzene] + COCC[N+]1(C)CCCCC1.O=S(=O)([N-]S(=O)(=O)C(F)(F)F)C(F)(F)F then?
0.912

For C1COCCO1 [1,4-dioxane] + COCC[N+]1(C)CCCCC1.O=S(=O)([N-]S(=O)(=O)C(F)(F)F)C(F)(F)F then?
0.616

For CC#N [acetonitrile] + COCC[N+]1(C)CCCCC1.O=S(=O)([N-]S(=O)(=O)C(F)(F)F)C(F)(F)F then?
0.471

For CCC(=O)CC [pentan-3-one] + COCC[N+]1(C)CCCCC1.O=S(=O)([N-]S(=O)(=O)C(F)(F)F)C(F)(F)F then?
0.785
